Each record here notes measured Percentage of HDL in total cholesterol.
# experiment-notes: Plasma cholesterol and triglyceride levels in huCETP transgenic mice (Example 5)
# Assay type: in vivo
# condition-description: 50 mg/kg i.p. twice per week, week 6
e = 2'-O-(2-methoxyethyl) (MOE); d = 2'-deoxy (DNA)
Express it in %; write the number only.

INPUT: Fill in: Percentage of HDL in total cholesterol of ISIS 349512: 5-10-5 MOE gapmer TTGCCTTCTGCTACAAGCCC (sugars from the 5' end e5 d10 e5, backbone and methylation of C not given here) is ___
OUTPUT: 74

INPUT: Fill in: Percentage of HDL in total cholesterol of ISIS 349515: 5-10-5 MOE gapmer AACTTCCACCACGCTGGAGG (sugars from the 5' end e5 d10 e5, backbone and methylation of C not given here) is ___
OUTPUT: 75

INPUT: Fill in: Percentage of HDL in total cholesterol of ISIS 349511: 5-10-5 MOE gapmer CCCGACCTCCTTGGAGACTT (sugars from the 5' end e5 d10 e5, backbone and methylation of C not given here) is ___
OUTPUT: 76

INPUT: Fill in: Percentage of HDL in total cholesterol of ISIS 349517: 5-10-5 MOE gapmer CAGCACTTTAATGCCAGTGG (sugars from the 5' end e5 d10 e5, backbone and methylation of C not given here) is ___
OUTPUT: 74

Values from patent US20130053430A1
